Reported 229E Inhibition rate values follow for various molecules
# Tested on: HCoV-229E
# Design: species or system Huh-7; HTS, protection from HCoV-229E induced cell death, luminescent cell viability (CellCounting-Lite 2.0), inhibition rate
# Cond: 24 h post infection, 1 h compound pre-incubation; 10 µM; inhibitor
Hit rate of the full screen: of about 3,300 compounds, about 95 (3%) showed an effect of 50% or more. The full list was thinned out, with strong results kept by preference.
Observation Type: 229E Inhibition rate (%)

INSERT INTO measurements (molecule, observation_type, unit, quantitative_readout) VALUES
  ('COc1ccc2c(c1OC)CC1c3c(cc4c(c3-2)OCO4)CCN1C (centres unmarked)', '229E Inhibition rate', '%', 62.7),
  ('O=C1N[C@@H](Cc2ccccc2)C(=O)N2CCC[C@@H]12', '229E Inhibition rate', '%', 11.1),
  ('C/C=C(/C)C(=O)O[C@H]1c2cc(OC)c(OC)c(OC)c2-c2c(cc3c(c2OC)OCO3)C[C@H](C)[C@]1(C)O', '229E Inhibition rate', '%', 54.7),
  ('COc1c2c(cc3c1-c1c(cc4c(c1OC)OCO4)C[C@H](C)[C@H](C)C3)OCO2', '229E Inhibition rate', '%', 52.7),
  ('CCCCCCCCC[C@H](O)CC(=O)CCc1ccc(O)c(OC)c1', '229E Inhibition rate', '%', 32.3),
  ('C/C=C(/C)C(=O)O[C@H]1c2cc(OC)c(OC)c(OC)c2-c2c(cc(OC)c(OC)c2OC)C[C@H](C)[C@]1(C)O', '229E Inhibition rate', '%', 42.2),
  ('CN1CCc2cc3c(c4c2C1Cc1ccccc1-4)OCO3 (centres unmarked)', '229E Inhibition rate', '%', 25.9),
  ('CCCCCCC[C@H](O)CC(=O)CCc1ccc(O)c(OC)c1', '229E Inhibition rate', '%', 13.3);

====

# Test system: HCoV-229E
# Set-up: species or system Huh-7; HTS, protection from HCoV-229E induced cell death, luminescent cell viability (CellCounting-Lite 2.0), inhibition rate
# Cond: 24 h post infection, 1 h compound pre-incubation; 10 µM; inhibitor
Screen size: about 3,300 compounds; about 95 (3%) showed an effect of 50% or more. The entries come from a sample that favours strong results as a whole.
Reported 229E Inhibition rate values are given for each entry in this list.
Observation Type: 229E Inhibition rate (%)

INSERT INTO assay_data (compound, assayed_system, unit, quantitative_readout) VALUES
  ('O=c1cc(-c2ccccc2)oc2cc(O)cc(O)c12', 'HCoV-229E', '%', 0),
  ('O=c1cc(-c2ccccc2)c2c(O)cc(O)cc2o1', 'HCoV-229E', '%', 50.8),
  ('O=C1Cc2ccccc2N1', 'HCoV-229E', '%', 15.9),
  ('O=C(O)CNC(=O)/C=C/c1ccccc1', 'HCoV-229E', '%', 41.7),
  ('CC(C)=CC[C@@H](OC(=O)C=C(C)C)C1=CC(=O)c2c(O)ccc(O)c2C1=O', 'HCoV-229E', '%', 50.2),
  ('CCCCCCCCCCC/C=C\CCCCC(=O)O', 'HCoV-229E', '%', 0),
  ('O=C(O)C(=O)Cc1ccc(O)cc1 [4-Hydroxyphenylpyruvic acid]', 'HCoV-229E', '%', 21.1),
  ('CCCCC/C=C\C/C=C\CCCCCCCC(=O)NCc1ccccc1 [N-Benzyllinoleamide]', 'HCoV-229E', '%', 24.5),
  ('O=c1cc(-c2ccc(O)cc2)oc2cc(O)cc(O)c12', 'HCoV-229E', '%', 55.5),
  ('O=c1c(O)c(-c2ccccc2)oc2cc(O)cc(O)c12', 'HCoV-229E', '%', 8),
  ('COc1ccc(-c2cc(=O)c3c(O)cc(O)cc3o2)cc1-c1c(O)cc(O)c2c(=O)cc(-c3ccc(O)cc3)oc12', 'HCoV-229E', '%', 22.4),
  ('O=C(O)CCC(=O)OC[C@@H](NC(=O)C(Cl)Cl)[C@H](O)c1ccc([N+](=O)[O-])cc1 [Chloramphenicol succinate (sodium)]', 'HCoV-229E', '%', 54),
  ('CC(C)=CC[C@H](OC(=O)C=C(C)C)C1=CC(=O)c2c(O)ccc(O)c2C1=O', 'HCoV-229E', '%', 17.4),
  ('CC(C)=CCC/C(C)=C/C=O', 'HCoV-229E', '%', 47.4),
  ('COc1ccc(-c2cc(=O)c3c(O)cc(O)c(-c4cc(-c5cc(=O)c6c(O)cc(O)cc6o5)ccc4OC)c3o2)cc1', 'HCoV-229E', '%', 6.1),
  ('COc1cc(O)c2c(=O)cc(-c3ccc(OC)c(-c4c(O)cc(O)c5c(=O)cc(-c6ccc(O)cc6)oc45)c3)oc2c1', 'HCoV-229E', '%', 64.4),
  ('CCCCCCCCCCCCCCCCCC(=O)NCc1ccccc1 [N-Benzyloctadecanamide]', 'HCoV-229E', '%', 46.3),
  ('CC(=O)OCCC(C)CCC=C(C)C (stereo not drawn) [Citronellyl acetate]', 'HCoV-229E', '%', 16.2);
